# experiment-notes: Film stability with concentrated salt formulations, starch/gelling carrageenan film
# Type: physicochemical
# conditions: concentrated suspension/solution in film depression, open exposure
quantity: Test Result After 24 Hours at 40° C.-75% RH, Starch/Gelling Carrageenan film

These solved cases illustrate the format of a correct answer.
molecule: O=P([O-])([O-])O.[K+].[K+]
value-reported: Pass
--
molecule: O=C(O)CC(O)(CC(=O)O)C(=O)O
value-reported: Fail
--
molecule: O=C(O)C(O)C(O)C(=O)O (centres unmarked)
value-reported: Fail
--
molecule: O=P([O-])([O-])[O-].[Na+].[Na+].[Na+] [Sodium PO4-(tribasic)]
value-reported: Pass
--
molecule: O=C([O-])c1ccccc1C(=O)O.[K+] [Potassium Hydrogen Phthalate]
value-reported: Pass

-- ask I have this molecule here, CC(=O)O.N [Ammonium acetate] , and I need its recorded Test Result After 24 Hours at 40° C.-75% RH, Starch/Gelling Carrageenan film.
-- reply Pass

-- ask Name the recorded Test Result After 24 Hours at 40° C.-75% RH, Starch/Gelling Carrageenan film for O=C([O-])CC(O)(CC(=O)[O-])C(=O)[O-].[K+].[K+].[K+] [Potassium citrate] .
-- reply Pass

-- ask // query Test Result After 24 Hours at 40° C.-75% RH, Starch/Gelling Carrageenan film value for entry CC(=O)[O-].[K+] [Potassium acetate]
-- reply Pass
